Quick reference: MFI pH 7.4 of the listed items.
Molecular target: T1, human CD3 on CD3+ Jurkat cells (human, UniProt P07766 23-207)
T1 construct: whole, on cells; Native CD3 complex on cells; the other CD3 chains are not specified for this assay; also called Human CD3+ Jurkat
T1 sequence (P07766 23-207): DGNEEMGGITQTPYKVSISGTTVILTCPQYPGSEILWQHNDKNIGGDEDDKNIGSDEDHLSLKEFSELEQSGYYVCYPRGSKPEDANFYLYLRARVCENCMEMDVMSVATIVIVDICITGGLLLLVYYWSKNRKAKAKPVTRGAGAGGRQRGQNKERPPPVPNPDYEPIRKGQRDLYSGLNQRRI
Assay: flow cytometry, 100 nM IgG on CD3+ Jurkat cells, pH 7.4

>  <Binder>
SAD10318_P03_E09 (ADI-48611) (antibody, V domains shown, IgG; also called Ab207) VH: QVQLVQSGAEVKKPGASVKVSCKASGFNIKDYYMHWVRQAPGQRLEWMGWIDLENANTIYDAKFQGRVTITRDTSASTAYMELSSLRSEDTAVYYCARDAYGHYHYDVWGQGTLVTVS VL: DIVMTQSPDSLAVSLGERATINCKSSQSLLNARTGHNHLAWYQQKPGQPPKLLIYWASTRESGVPDRFSGSGSGTDFTLTISSLQAEDVAVYYCKQSYHHRTFGGGTKVEIK

>  <MFI pH 7.4 (MFI)>
47

$$$$
>  <Binder>
SAD10320_P02_H05 (ADI-48652) (antibody, V domains shown, IgG; also called Ab81) VH: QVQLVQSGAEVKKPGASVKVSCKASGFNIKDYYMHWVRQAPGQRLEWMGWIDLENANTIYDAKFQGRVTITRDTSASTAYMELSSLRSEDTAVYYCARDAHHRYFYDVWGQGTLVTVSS VL: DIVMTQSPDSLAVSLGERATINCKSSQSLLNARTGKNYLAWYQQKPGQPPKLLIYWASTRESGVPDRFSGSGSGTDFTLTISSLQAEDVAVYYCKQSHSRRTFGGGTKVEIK

>  <MFI pH 7.4 (MFI)>
4760

$$$$
>  <Binder>
SAD10318_P04_A12 (ADI-48618) (antibody, V domains shown, IgG; also called Ab224) VH: QVQLVQSGAEVKKPGASVKVSCKASGFNIKDYYMHWVRQAPGQRLEWMGWIDLENANTIYDAKFQGRVTITRDTSASTAYMELSSLRSEDTAVYYCARDAYHRHFYDVWGQGTLVTVSS VL: DIVMTQSPDSLAVSLGERATINCKSSQSLLHPRTGKNYLAWYQQKPGQPPKLLIYWASTRESGVPDRFSGSGSGTDFTLTISSLQAEDVAVYYCKQSYHHRTFGGGTKVEIK

>  <MFI pH 7.4 (MFI)>
41

$$$$
